system: RSK3(Kin.Dom.1-N-terminal); construct: gene RPS6KA2; conditions: concentration: 1 μM, replicates: in singlicate; n = 1;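 also: KINOMEscan kinase panel screen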
Measured %Inh by item
assay.readout: %Inh

structure.string	system.name	assay.readout	assay.value
O=C(Nc1ccccc1)Nc1cccc(Oc2ccc3nccn3n2)c1	RSK3(Kin.Dom.1-N-terminal)	%Inh	9%
Cc1c(O)cccc1Nc1ccnc2ccc(C(F)(F)F)cc12.Cl	RSK3(Kin.Dom.1-N-terminal)	%Inh	0%
COc1cc2nccc(Nc3ccc(NC(=O)c4ccc(C)cc4)c(O)c3)c2cc1OC.Cl	RSK3(Kin.Dom.1-N-terminal)	%Inh	4%
COc1cccc(-c2cc(-c3c[nH]nc3-c3ccccn3)ccn2)c1	RSK3(Kin.Dom.1-N-terminal)	%Inh	0%
O=C(Nc1n[nH]c2cc(-c3cccc(F)c3F)ccc12)C1CC1	RSK3(Kin.Dom.1-N-terminal)	%Inh	52%

====

As shown below, each of these compounds has a reported %Inh value.
test system: LATS1; conditions: concentration: 1 μM, replicates: in singlicate; n = 1
assay.readout: %Inh (%)

compound	assay.value
Nc1ncnc2[nH]c(-c3ccccc3)nc12 [AH5015]	0
COc1ccccc1CNC(=O)c1cc(C(=O)c2ccccc2C)c[nH]1 [GSK364507]	0
COc1ccc(C2=C(Nc3cccc(C(=O)O)c3)C(=O)NC2=O)cc1 [SB-390765]	26
C[C@@H]1CCCCN1c1cc(-c2ccc3c(N)n[nH]c3c2)nc(N)n1 [GSK2258759]	23
Cc1nnc(-c2ccc3occ(-c4ccc(S(C)=O)cc4)c3c2)[nH]1 (stereo not shown)	19
O=S(=O)(c1ccc(-c2ccnc3[nH]ccc23)cc1)N1CCCC1 [GSK846226]	0
Cc1cccc(-c2nc(Nc3ccc4[nH]ncc4c3)c3ccccc3n2)n1 [GW857175]	1
Fc1cccc(COc2nnc(-c3ccc4c(c3)CCO4)o2)c1	0
O=C(Nc1n[nH]c2nc(-c3nccs3)c(Br)cc12)C1CC1 [SB-742251]	24
Cc1cc(-c2ccc3c(c2)CC[C@@H](N[C@@H](C)c2ccccc2)C3)cnc1N.Cl [GW412617]	0
CSc1nn2c(=O)cc(N3CCOCC3)nc2n1Cc1cccc(C(F)(F)F)c1C [GSK2363608]	0
COc1ccccc1-c1ccc2c(NC(=O)C3CC3)n[nH]c2n1 [SB-711239]	28
COc1cccc(-c2cc(-c3c[nH]nc3-c3ccccn3)ccn2)c1 [GW680338]	64
Cc1c(Cn2ccn3c(=O)cc(N4CCOCC4)nc23)cccc1C(F)(F)F [GSK2289044]	0
Cc1cc(N2Cc3ccccc3C2)nc(Nc2ccc(S(=O)(=O)N3CCOCC3)cc2)n1.Cl [GSK1669917]	29
O=C(Nc1ccccc1)Nc1cccc(Oc2ccc3nccn3n2)c1	0
COc1cc2nccc(Nc3ccc(NC(=O)c4ccc(C)cc4)c(O)c3)c2cc1OC.Cl [GW440132]	0
Fc1cc(Cl)ccc1Nc1ccnc2cc(-c3ccc(CN4CCCCC4)o3)ccc12 [GW560116]	3
Cc1c(O)cccc1Nc1ccnc2ccc(C(F)(F)F)cc12.Cl [GW466413]	0

====

test system: LKB1; construct: gene STK11; details: concentration: 1 μM, replicates: in singlicate; n = 1

molecule	%Inh / %
Cn1cncc1-c1ccc2ncnc(Nc3ccc(OCc4ccccc4)cc3)c2c1 [GW320571]	0
COc1ccccc1CNC(=O)c1cc(C(=O)c2ccccc2C)c[nH]1 [GSK364507]	0
Cc1ccc(NC(=O)Nc2cc(C(C)(C)C)nn2-c2ccccc2)cc1 [GSK1014915]	0
Fc1cc(Cl)ccc1Nc1ccnc2cc(-c3ccc(CN4CCCCC4)o3)ccc12 [GW560116]	0
CC(C)(C)c1ccc(C(=O)Nc2cn3cc(-c4cccnc4)ccc3n2)cc1	24
Cc1cccc(-c2cc(Nc3ccncc3)c3ccccc3n2)n1 [GSK223675]	7
Cc1cccc(-c2nc(Nc3ccncc3)c3ccccc3n2)n1 [GW855857]	18
COc1ccccc1-c1ccc2c(NC(=O)C3CC3)n[nH]c2n1 [SB-711239]	6
COc1ccc2nc(-c3cccc(C)n3)nc(Nc3ccncc3)c2c1 [GSK204919]	0
